- Target or test system: importin beta (Homo sapiens, UniProt Q14974)
- Sequence (Q14974 whole entry): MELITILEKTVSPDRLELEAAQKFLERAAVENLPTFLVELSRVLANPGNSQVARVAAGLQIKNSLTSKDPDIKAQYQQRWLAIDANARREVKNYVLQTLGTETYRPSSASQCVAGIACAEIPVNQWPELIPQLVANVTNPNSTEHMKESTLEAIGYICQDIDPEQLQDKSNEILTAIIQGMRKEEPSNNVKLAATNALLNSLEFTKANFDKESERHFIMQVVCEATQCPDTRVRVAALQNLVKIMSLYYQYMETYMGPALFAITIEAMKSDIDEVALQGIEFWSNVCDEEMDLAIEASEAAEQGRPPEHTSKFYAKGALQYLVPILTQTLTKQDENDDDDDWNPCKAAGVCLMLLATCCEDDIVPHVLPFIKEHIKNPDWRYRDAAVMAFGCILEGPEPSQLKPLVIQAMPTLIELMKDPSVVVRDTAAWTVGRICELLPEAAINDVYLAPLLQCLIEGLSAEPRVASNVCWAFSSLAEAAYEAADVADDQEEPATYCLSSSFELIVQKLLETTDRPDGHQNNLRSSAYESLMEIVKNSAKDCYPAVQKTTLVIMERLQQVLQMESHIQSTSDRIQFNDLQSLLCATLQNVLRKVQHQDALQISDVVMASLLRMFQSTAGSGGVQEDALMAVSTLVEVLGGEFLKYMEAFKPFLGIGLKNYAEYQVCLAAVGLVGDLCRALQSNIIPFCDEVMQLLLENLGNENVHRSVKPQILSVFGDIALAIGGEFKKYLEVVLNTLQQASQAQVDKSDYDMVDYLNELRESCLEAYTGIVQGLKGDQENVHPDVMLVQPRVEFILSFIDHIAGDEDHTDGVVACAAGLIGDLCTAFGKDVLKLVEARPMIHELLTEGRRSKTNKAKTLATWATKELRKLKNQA
- Assay text: Importins pull-down assay, Jurkat T cell extract
- Format: binding
- Set-up: whole cell extract from unstimulated human Jurkat T cells; endogenous in cells; host or cells: human Jurkat T cells, whole-cell extract
- Condition label: biotinylated peptide, Jurkat T cell lysate pull-down
Bridge positions count the residues as written; N and C are the ends. Ends that are not written are not given here.
Parameter: interaction with importin beta

CVQRKRQKLMPC (disulfide 1-12 (inferred)) [cN50.1] ... did not react
VQRKRQKLMP (HOMO SAPIENS) [N50] ... did not react
